system: Enterococcus faecalis; experiment: Growth inhibition of Enterococcus faecalis ATCC 29212 incubated in MHB broth for 24 hrs; format: organism-based
Field: MIC. Provide a value for each of the compounds that follow.
Don't forget the unit after the value.

Examples with their reported MIC follow.
1. CC(C)CCOc1ccc2ccccc2c1-c1c(OCc2cn([C@H](CCCCN)C(=O)N[C@H](CCCNC(=N)N)Cn3cc(CCc4ccccc4)nn3)nn2)ccc2ccccc12.Cl.Cl 4 µg/mL
2. CC(C)CCOc1ccccc1-c1ccccc1OCc1cn([C@H](CCCCN)C(=O)NCc2ccccc2)nn1.Cl 16 µg/mL
3. CCCN(CC1CC1)C(=O)[C@@H](CCCNC(=N)N)n1cc(COc2ccccc2-c2ccccc2OCCC(C)C)nn1.Cl 4 µg/mL

# evaluate next
Entry `CC(C)CCOc1ccccc1-c1ccccc1OCc1cn([C@H](CCCNC(=N)N)C(=O)Nc2ccccc2)nn1.Cl` , MIC reported as 2 µg/mL

---

Field: MIC. Provide a value for each of the compounds that follow.
system: Staphylococcus aureus; assay: Growth inhibition of methicillin-resistant Staphylococcus aureus ATCC 43300 incubated for 18 hrs; format: organism-based
Give bare numbers, in µg/mL.

1) CC(C)CCOc1ccccc1-c1ccccc1OCc1cn([C@H](CCCNC(=N)N)C(=O)NCC2CCCCC2)nn1.Cl 4

Entry `CN[C@H](CC(C)C)C(=O)N[C@H]1C(=O)N[C@@H](CC(N)=O)C(=O)N[C@H]2C(=O)N[C@H]3C(=O)N[C@H](C(=O)N[C@H](C(=O)O)c4cc(O)cc(O)c4-c4cc3ccc4O)[C@H](O)c3ccc(c(Cl)c3)Oc3cc2cc(c3O[C@@H]2O[C@H](CO)[C@@H](O)[C@H](O)[C@H]2O[C@H]2C[C@](C)(N)[C@H](O)[C@H](C)O2)Oc2ccc(cc2Cl)[C@H]1O` , MIC reported as 1

---

tested on: Clostridioides difficile; test: Antibacterial activity against Clostridium difficile ATCC 700057 incubated for 2 to 4 hrs in pre-reduced brucella broth supplemented with haemin/vitamin K and further incubation in anaerobic condition for 48 hrs; assay type: functional
Sorting guide: entries reporting MIC beneath 20 µg/mL go in the true (1) pile, the rest go in the false (0) pile.

Check out these entries, answers already filled in.
1. CC(C)CCOc1ccccc1-c1ccccc1OCc1cn([C@H](CCCCN)C(=O)N[C@H](CCCNC(=N)N)Cn2cc(CC3CCCCC3)nn2)nn1.Cl.Cl true (1)
2. CC(C)CCOc1ccc2ccccc2c1-c1c(OCC(=O)N[C@H](CCCNC(=N)N)C(=O)NCCc2ccc(F)cc2)ccc2ccccc12.Cl false (0)
3. CC(C)CCOc1ccccc1-c1ccccc1OCc1cn([C@H](CCCNC(=N)N)C(=O)NCC2CCCCC2)nn1.Cl false (0)
4. CCCN(CC1CC1)C(=O)[C@@H](CCCNC(=N)N)n1cc(COc2ccccc2-c2ccccc2OCCC(C)C)nn1.Cl true (1)

Lab note: confirm whether the reported MIC for this molecule is below 20 µg/mL, equality not counting. molecule: `CC(C)CCOc1ccccc1-c1ccccc1OCc1cn([C@H](CCCCN)C(=O)NCCc2ccc(F)cc2)nn1.Cl` false (0)

Lab note: confirm whether the reported MIC for this molecule is below 20 µg/mL, equality not counting. molecule: `CC(C)CCOc1ccc2ccccc2c1-c1c(OCC(=O)N[C@H](CCCNC(=N)N)C(=O)NCc2ccccc2)ccc2ccccc12.Cl` true (1)

Lab note: confirm whether the reported MIC for this molecule is below 20 µg/mL, equality not counting. molecule: `CC(C)CCOc1ccc2ccccc2c1-c1c(OCc2cn([C@H](CCCCN)C(=O)N[C@H](CCCNC(=N)N)Cn3cc(CC4CCCCC4)nn3)nn2)ccc2ccccc12.Cl.Cl` true (1)

Data provenance is ChEMBL document CHEMBL4393656.
